- protocol description: Ivosidenib plasma PK after multiple oral doses (dose escalation)
- Type: in vivo, human
- test parameters: human, plasma, oral, 300 mg, non-glioma solid tumors, 300 mg QD, cycle 2 day 1; median; read-out: Tmax
assay endpoint: Tmax (h)
Provide the reading as a plain figure in h.

# Tmax (compound: `N#Cc1ccnc(N2C(=O)CC[C@H]2C(=O)N(c2cncc(F)c2)[C@H](C(=O)NC2CC(F)(F)C2)c2ccccc2Cl)c1` ) is 2.05

###

- protocol description: Ivosidenib plasma PK after a single oral dose (day −3, dose escalation), LC-MS/MS, non-compartmental
- Type: in vivo
- test parameters: human, po, 300 mg, glioma, single oral 300 mg, day −3, geometric mean (geometric CV%), read-out: AUC0-72h
assay endpoint: AUC(0-t) (ng·h/mL)
Report as a plain number; the unit ng·h/mL is understood.

In plain terms, `N#Cc1ccnc(N2C(=O)CC[C@H]2C(=O)N(c2cncc(F)c2)[C@H](C(=O)NC2CC(F)(F)C2)c2ccccc2Cl)c1` has a documented AUC(0-t) of 62500

###

- protocol description: Ivosidenib plasma PK after single and multiple 500 mg QD doses (dose expansion)
- Assay type: in vivo, human
- test parameters: human, plasma, oral, 500 mg, expansion cholangiocarcinoma, cycle 2 day 1, geometric mean (geometric CV%)
assay endpoint: Cmax (ng/mL)
Your answer should be a plain number; it is taken to be in ng/mL.

The recorded Cmax for entry `N#Cc1ccnc(N2C(=O)CC[C@H]2C(=O)N(c2cncc(F)c2)[C@H](C(=O)NC2CC(F)(F)C2)c2ccccc2Cl)c1` equals 4580

###

- protocol description: Ivosidenib plasma PK after a single oral dose (day −3, dose escalation), LC-MS/MS, non-compartmental
- Assay type: in vivo
- test parameters: human, po, 400 mg, non-glioma solid tumors, single oral 400 mg, day −3, geometric mean (geometric CV%)
assay endpoint: Cmax (ng/mL)
Express it in ng/mL; write the number only.

Quick note, Cmax for `N#Cc1ccnc(N2C(=O)CC[C@H]2C(=O)N(c2cncc(F)c2)[C@H](C(=O)NC2CC(F)(F)C2)c2ccccc2Cl)c1` landed at 4230

###

- protocol description: Ivosidenib plasma PK after a single oral dose (day −3, dose escalation), LC-MS/MS, non-compartmental
- Format: in vivo
- test parameters: human, po, 800 mg, non-glioma solid tumors, single oral 800 mg, day −3, geometric mean (geometric CV%), read-out: t1/2 (converted)
assay endpoint: half-life

Reported half-life ( `N#Cc1ccnc(N2C(=O)CC[C@H]2C(=O)N(c2cncc(F)c2)[C@H](C(=O)NC2CC(F)(F)C2)c2ccccc2Cl)c1` ) = 62.8 h

###

- protocol description: Ivosidenib plasma PK after a single oral dose (day −3, dose escalation), LC-MS/MS, non-compartmental
- Type: in vivo
- test parameters: human, po, 600 mg, glioma, single oral 600 mg, day −3, geometric mean (geometric CV%), read-out: t1/2 (converted)
assay endpoint: half-life
Note: a bare number is incomplete; add the unit.

The compound listed as N#Cc1ccnc(N2C(=O)CC[C@H]2C(=O)N(c2cncc(F)c2)[C@H](C(=O)NC2CC(F)(F)C2)c2ccccc2Cl)c1 [ivosidenib] shows half-life equal to 39.5 h

###

- protocol description: Ivosidenib plasma PK after a single oral dose (day −3, dose escalation), LC-MS/MS, non-compartmental
- Type: in vivo
- test parameters: human, po, 100 mg, glioma, single oral 100 mg, day −3, median (minimum; maximum), read-out: Tmax
assay endpoint: Tmax
Just so you know, I need the unit written after the number.

Consider N#Cc1ccnc(N2C(=O)CC[C@H]2C(=O)N(c2cncc(F)c2)[C@H](C(=O)NC2CC(F)(F)C2)c2ccccc2Cl)c1 [ivosidenib] . Its measured Tmax is 2.03 h

###

- protocol description: Ivosidenib plasma PK after a single oral dose (day −3, dose escalation), LC-MS/MS, non-compartmental
- Type: in vivo
- test parameters: human, po, 600 mg, glioma, single oral 600 mg, day −3, geometric mean (geometric CV%), read-out: AUC0-72h
assay endpoint: AUC(0-t) (ng·h/mL)
Write the value in ng·h/mL as a bare number.

Reported AUC(0-t) ( `N#Cc1ccnc(N2C(=O)CC[C@H]2C(=O)N(c2cncc(F)c2)[C@H](C(=O)NC2CC(F)(F)C2)c2ccccc2Cl)c1` ) = 77700

###

- protocol description: Ivosidenib plasma PK after single and multiple 500 mg QD doses (dose expansion)
- Assay type: in vivo, human
- test parameters: human, plasma, oral, 500 mg, expansion overall, cycle 2 day 1, geometric mean (geometric CV%)
- Experimental: Additional predose samples were taken on cycle 1, day 8; cycle 1, day 15; cycle 3, day 1; and end of treatment. Plasma ivosidenib was measured using two validated liquid chromatography-tandem mass spectrometry (LC-MS/MS) methods. The lower limit of quantification (LLOQ) was 1.00 ng/mL (low-range assay) or 50.0 ng/mL (high-range assay). […] Plasma 2-HG concentrations were measured using a qualified LC-MS/MS method with an LLOQ of 30.0 ng/mL. […]
assay endpoint: Cmax (ng/mL)
Expressed in ng/mL, but write only the number.

Reported Cmax ( `N#Cc1ccnc(N2C(=O)CC[C@H]2C(=O)N(c2cncc(F)c2)[C@H](C(=O)NC2CC(F)(F)C2)c2ccccc2Cl)c1` ) = 4210

###

- protocol description: Ivosidenib plasma PK after single and multiple 500 mg QD doses (dose expansion)
- Type: in vivo, human
- test parameters: human, plasma, oral, 500 mg, expansion overall, cycle 1 day 1, geometric mean (geometric CV%)
assay endpoint: Cmax
The answer should read as a number with its unit following.

Entry under test: `N#Cc1ccnc(N2C(=O)CC[C@H]2C(=O)N(c2cncc(F)c2)[C@H](C(=O)NC2CC(F)(F)C2)c2ccccc2Cl)c1` . Its Cmax was 3310 ng/mL

###

- protocol description: Ivosidenib plasma PK after multiple oral doses (dose escalation)
- Format: in vivo, human
- test parameters: human, plasma, oral, 300 mg, non-glioma solid tumors, 300 mg QD, cycle 2 day 1; geometric mean; read-out: AUC0-tau
- Procedure: In the dose escalation portion, patients with 1) glioma and 2) non-glioma solid tumors were enrolled into sequential cohorts using a standard 3 + 3 design. […] Plasma ivosidenib was measured using two validated liquid chromatography-tandem mass spectrometry (LC-MS/MS) methods. The lower limit of quantification (LLOQ) was 1.00 ng/mL (low-range assay) or 50.0 ng/mL (high-range assay). […] Plasma 2-HG concentrations were measured using a qualified LC-MS/MS method with an LLOQ of 30.0 ng/mL. […]
assay endpoint: AUC (ng·h/mL)
Give just the number in ng·h/mL; leave the unit off.

Note to self: AUC recorded for `N#Cc1ccnc(N2C(=O)CC[C@H]2C(=O)N(c2cncc(F)c2)[C@H](C(=O)NC2CC(F)(F)C2)c2ccccc2Cl)c1` was 53200

###

- protocol description: Ivosidenib plasma PK after a single oral dose (day −3, dose escalation), LC-MS/MS, non-compartmental
- Assay type: in vivo
- test parameters: human, po, 100 mg, glioma, single oral 100 mg, day −3, geometric mean (geometric CV%), read-out: t1/2 (converted)
assay endpoint: half-life (h)
Provide the reading as a plain figure in h.

N#Cc1ccnc(N2C(=O)CC[C@H]2C(=O)N(c2cncc(F)c2)[C@H](C(=O)NC2CC(F)(F)C2)c2ccccc2Cl)c1 [ivosidenib] yielded half-life of 55.5

###

- protocol description: Ivosidenib plasma PK after a single oral dose (day −3, dose escalation), LC-MS/MS, non-compartmental
- Type: in vivo
- test parameters: human, po, 300 mg, non-glioma solid tumors, single oral 300 mg, day −3, geometric mean (geometric CV%)
assay endpoint: Cmax (ng/mL)
Enter your answer as a number in ng/mL; do not include the unit.

Value of Cmax reported for the compound `N#Cc1ccnc(N2C(=O)CC[C@H]2C(=O)N(c2cncc(F)c2)[C@H](C(=O)NC2CC(F)(F)C2)c2ccccc2Cl)c1` is 2350

###

- protocol description: Ivosidenib plasma PK after single and multiple 500 mg QD doses (dose expansion)
- Format: in vivo, human
- test parameters: human, plasma, oral, 500 mg, expansion chondrosarcoma, cycle 2 day 1, geometric mean (geometric CV%), read-out: AUC0-8hr
assay endpoint: AUC(0-t) (ng·h/mL)
Answer in ng·h/mL, number only, no unit symbol.

Per the record, N#Cc1ccnc(N2C(=O)CC[C@H]2C(=O)N(c2cncc(F)c2)[C@H](C(=O)NC2CC(F)(F)C2)c2ccccc2Cl)c1 [ivosidenib] has AUC(0-t) of 36200

###

- protocol description: Ivosidenib plasma PK after multiple oral doses (dose escalation)
- Type: in vivo, human
- test parameters: human, plasma, oral, 300 mg, glioma, 300 mg QD, cycle 2 day 1; geometric mean; read-out: AUC0-10hr
assay endpoint: AUC(0-t) (ng·h/mL)
Only the number, expressed in ng·h/mL, is required.

Kindly note the recorded AUC(0-t) for `N#Cc1ccnc(N2C(=O)CC[C@H]2C(=O)N(c2cncc(F)c2)[C@H](C(=O)NC2CC(F)(F)C2)c2ccccc2Cl)c1` , which is 23700

###

- protocol description: Ivosidenib plasma PK after a single oral dose (day −3, dose escalation), LC-MS/MS, non-compartmental
- Type: in vivo
- test parameters: human, po, 500 mg, non-glioma solid tumors, single oral 500 mg, day −3, median (minimum; maximum), read-out: Tmax
assay endpoint: Tmax (h)
Reply numerically in h, unit not repeated.

# compound N#Cc1ccnc(N2C(=O)CC[C@H]2C(=O)N(c2cncc(F)c2)[C@H](C(=O)NC2CC(F)(F)C2)c2ccccc2Cl)c1 [ivosidenib] ; its Tmax = 2.92
